Experiment: qHTS assay to identify small molecule agonists of the AP-1 signaling pathway - cell viability counter screen (AID 1159525); also: nearly all actives have a fitted effect of over 55% in size
Details: ME-180 (cervical carcinoma) AP-1-bla cells viability, ATP luminescence, 5 h; series mostly up to 76.8 µM
Inconclusive results are not listed. Calls of active or inactive are those of the source. Calls follow the shape of the full dose curve.
measured-quantity: outcome

# count of solved cases: 4
molecule	outcome
Clc1ccc(C2(Cn3cncn3)CC(Br)CO2)c(Cl)c1 (stereo unspecified)	inactive
O=C(CBr)Nc1ccc(Cl)cc1C(=O)c1ccccc1F	inactive
CCCCCCCCCCOC(=O)c1ccccc1C(=O)OCCCCCCCCCC	inactive
CC(O)(CS(=O)(=O)c1ccc(F)cc1)C(=O)Nc1ccc(C#N)c(C(F)(F)F)c1 (stereo unspecified)	inactive

Please supply outcome for each of the following items, keeping them in order.
1. O=C=Nc1ccc(Cl)cc1
2. O=C1CN=C(c2ccccc2)c2cc(Cl)ccc2N1CC1CC1

Response:
inactive
inactive
